Tested on: MOLM-13 cells (human acute myeloid leukemia cells)
assay-procedure: MOLM-13 Cellular Assay
Type: cell-based
reported-conditions: Homo sapiens, MOLM-13, 72 h, 72 hours exposure, cell viability by CellTiter-Glo
Reported pIC50 values for a set of molecules
Just so you know, pIC50 here is -log10 of the concentration in molar units; reply with that number alone.

>  <molecule>
CCn1c(CO)nn(-c2cc3c(C(C)C)cn(-c4ccnc(OC)c4Cl)c(=O)c3cc2F)c1=O [Example 106]

>  <pIC50>
8.00

$$$$

pIC50 for CCn1c(CO)nn(-c2cc3c(C(C)C)cn(-c4cc(OC)ccc4F)c(=O)c3cc2F)c1=O [Example 63] is 8.70

pIC50 for CCn1c(CO)nn(-c2cc3c(C(C)C)cn(C4CCCCC4)c(=O)c3cc2F)c1=O [Example 107] is 8.22

pIC50 for CCn1c(CO)nn(-c2cc3c(C(C)C(F)(F)F)cn(-c4ccccc4C)c(=O)c3cc2F)c1=O (racemic) [Example 88] is 9.05

pIC50 for CCc1nn(-c2ccccc2C)c(=O)c2ccc(-n3nc(CO)n(CC)c3=O)cc12 [Example 21] is 8.00

pIC50 for [2H]C([2H])([2H])c1ccccc1-n1cc(C(C)C)c2cc(-n3nc(CO)n(CC)c3=O)c(F)cc2c1=O [Example 93] is 9.22

pIC50 for CCn1c(CO)nn(-c2cc3c(C(C)C)cn(-c4c(C)cnc(OC)c4C)c(=O)c3cc2F)c1=O [Example 78] is 7.70

pIC50 for CCn1c(CO)nn(-c2ccc3c(=O)n(-c4cccc(F)c4)cc(C(C)C)c3c2)c1=O [Example 2] is 7.40

pIC50 for CCn1c(CO)nn(-c2cc3c(C(C)C)cn(-c4c(C)ccnc4OC)c(=O)c3cc2F)c1=O [Example 50] is 8.15

pIC50 for CCn1c(CO)nn(-c2nc3c(C(C)C)cn(-c4ccccc4OC)c(=O)c3cc2F)c1=O [Example 130] is 9.05

pIC50 for CCn1c(CO)nn(-c2cc3c(C(C)C)cn(-c4ccccc4OC)c(=O)c3cc2F)c1=O [Example 95] is 9.00

pIC50 for C=C(C)c1cn(-c2cccc(OC)c2Cl)c(=O)c2cc(F)c(-n3nc(CO)n(CC)c3=O)cc12 [Example 70] is 9.40

pIC50 for CCn1c(CO)nn(-c2cc3c(C(C)C(F)(F)F)nn(-c4ccccc4C)c(=O)c3cc2F)c1=O (racemic) [Example 55] is 9.30

pIC50 for CCn1c(CO)nn(-c2cc3c(C(C)C)nn(-c4ccccc4C)c(=O)c3cc2F)c1=O [Example 53] is 9.15
